The origin of these recorded values is the supplement of paper PMC9170038.

sequences and their reported apparent KD of K4 kissing-loop reporter
tested on: K4 kissing-loop RNA reporter; experiment: apparent KD of K4 kissing-loop reporter; higher = weaker reporter binding; conditions: Eterna round: R107; input ligand: FMN 200 uM;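 also: bound reporter read as fluorescence of individual clusters on recovered sequencing chips by microscopy, with normalized cluster intensities fitted with a binding model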
Field: numeric (µM). Do not append units.

INSERT INTO results (seq_string, property_name, unit_of_measurement, observed_result) VALUES
  ('UAAUGGUAAGUGAUGUUUACCUGGAACGAUACCAGUCGCCAUGAGGACCCUUGGCAGCGUCACACAGCCUUCUAGUUGUGGUCUU [theeternabot_sameState_KL_Theo_A_46]', 'apparent KD of K4 kissing-loop reporter', 'µM', 0.418),
  ('UGACUGGACUGAAGGAGCGUUCAGGUAGGUCGCUAAGGAGUGAUGUUCCAUAGAAGGAGCGAACAGGUAGGUCGCAGUCUAGUCU [ArgBS 29 #DoubleAptamer #SwitchBubble]', 'apparent KD of K4 kissing-loop reporter', 'µM', 0.139),
  ('GCAGUGAUGUUGCUGAUGUGCAGUGGUAGUCGAGGACCGGUACGGCCGCCACUCGGUGAGAAUUUGUUAAUACAUCGAUAAGUGA [XVI]', 'apparent KD of K4 kissing-loop reporter', 'µM', 0.968),
  ('AAGGCGUCGAGUUUGGUGGCGCCAACAGAUACCAGAUUACCUCCAAUCCCUUGGCAGCUGGCUUGAGAGUGAUGUUUUCAAAAGU [theeternabot_sameState_KL_Theo_A_33]', 'apparent KD of K4 kissing-loop reporter', 'µM', 0.532),
  ('AGCAUUUUCAGAAGGAGCGUGAAUUAUUCUUAAGUAUAUUAUACGAGUGAUGUUCGUAUUUCACAGGUAGGUCGCUGAUAUAGCA [JR_SSArginiB_Sub003]', 'apparent KD of K4 kissing-loop reporter', 'µM', 0.0574),
  ('CUAUCGGUGCCAGUGAUGUUGGUACCGCCACGAGGACCGGUACGGCCGCCACUCGCAUUAGAUGAUCACACAGUGUAUACUGCUA [Aleusorza]', 'apparent KD of K4 kissing-loop reporter', 'µM', 0.139),
  ('UGGGUGUAGUGAUGUUAUAUAGAGAGUGAUACCAGUUUAGAGAGGAACCCUUGGCAGCAUAGAAGAGUAUCAUUGGAGGAGGAGG [ExTheophyl.Aw]', 'apparent KD of K4 kissing-loop reporter', 'µM', 0.677),
  ('AGUUCUUGCCGAAGGAGCGAGGCAGAGUGAUGUUCUGCAGAGGUCGAAAGACCUCAACUGCCUCAGGUAGGUCGCGGCAUGAACA [Omei KL Arginine B Exc A v6]', 'apparent KD of K4 kissing-loop reporter', 'µM', 0.291);

Reported apparent KD of K4 kissing-loop reporter ( UGACUGGACUGAAGGAGCGUUGAAGGAGCGUAAGUAGUGAUGUUGCUUACAGGUAGGUCGCAGCAGGUAGGUCGCAGUCUAGUCU ) = 0.0671

Notebook: UGUACCGAGUCAGGAUAUGGCGUCGAAAGACGAAUCCUAGUGAUGUUAGCGAUCUGCGAAAGCAGUCCAGAAGGGACUUGGUACU [FmnBS 26 C50] , apparent KD of K4 kissing-loop reporter read as 0.219

Please fill in: apparent KD of K4 kissing-loop reporter reported for UGAUAGGACAGAAGGAGCGGAAUGCUAGUCAAAGACUAGCAACGUUAAACAGGAGUGAUGUUCCAGGUAGGUCGCUGUCCUAUCU [ArgBX 22 #SwitchBubble #StaticStem] = 0.143

apparent KD of K4 kissing-loop reporter measured on UUUCCAGUGAUGUUGGAGAAAACCGAGGAAGGAGCGGACUCUUGUCCAGGUAGGUCGCCUCGUCUCCCAUUGGCAGAGCGGACCC [Enlaonbian] = 0.232
